tested on: CP191; assay: qHTS profiling for inhibitors of Plasmodium falciparum proliferation (AID 504749); further: nearly all actives have a fitted effect of over 60% in size; settings: P. falciparum in erythrocytes, SYBR Green DNA, 72 h; series mostly up to 28.7 µM
Inconclusive results are not listed. Activity calls are given as the source filed them. The call rests on the fitted dose curve; in most records, active means well fitted inhibition curve with a large enough effect; inconclusive means small, poorly fitted or top-dose-only effect; inactive means flat fitted curve, though single readings scatter. Peptide text beside a SMILES is read from it.
Thanks in advance; please answer with one of these: active, inactive

Solved cases below.
compound=COc1ccc2cc([C@H](C)C(=O)O)ccc2c1 category_label=inactive
compound="COC(=O)[C@H](Cc1ccccc1)NC(=O)[C@@H](N)CC(=O)O (H-Asp-Phe-OMe)" category_label=inactive
compound="CCCCN(CCCC)CCC(O)c1cc2c(Cl)cc(Cl)cc2c2cc(C(F)(F)F)ccc12 (configuration not stated)" category_label=active
compound=O=C(O)CCNC(=O)c1ccc(N=Nc2ccc(O)c(C(=O)O)c2)cc1 category_label=inactive
compound=Nc1cc(C(Cl)=C(Cl)Cl)c(S(N)(=O)=O)cc1S(N)(=O)=O category_label=inactive
compound=N=C(N=C(N)N)N1CCOCC1 category_label=inactive
compound=O=c1oc2cc(O)ccc2s1 category_label=inactive
compound=Cc1ccc(C)c(OCCCC(C)(C)C(=O)O)c1 category_label=inactive
compound="CCC(C)(Oc1ccc(C2(c3ccc(OC(C)(CC)C(=O)O)cc3)CCCCC2)cc1)C(=O)O (configuration not stated)" category_label=inactive
compound=C[C@H](Cn1cnc2c(N)ncnc21)OCP(=O)(O)O category_label=inactive

Request: Each compound tested received a call. Report the one for C=C(c1ccc(C(=O)O)cc1)c1cc2c(cc1C)C(C)(C)CCC2(C)C .
Response: inactive

Request: What did this assay record as the result for CCCc1cc(=O)[nH]c(=S)[nH]1 ?
Response: inactive

====

Assay: qHTS assay for measurement of the activity of small molecule inhibitors on Zika virus induced Caspase-3 activity in human iPSC derived neural progenitor cells (hNPCs) (AID 1224857); further: nearly all actives have a fitted effect of over 65% in size
Conditions: hNPCs ZIKV-induced caspase-3/7, Caspase-Glo luminescence, 6 h; series mostly up to 45.7 µM
Description: National Center for Advancing Translational Sciences [NCATS] Johns Hopkins University School of Medicine […] The medium for hNPCs consists of DMEM/F12, N2 supplement (ThermoFisher, Cat.# 17502048), NEAA (ThermoFisher, Cat. # 11140050), 2 ug/ml heparin, 2 uM cyclopamine, and B27 (ThermoFisher, Cat. # 17504044). […] The luminescence intensity of the assay plates was measured using a ViewLux plate reader (PerkinElmer). […]
Records with an inconclusive call do not appear. The source made the active and inactive calls. The call rests on the fitted dose curve; in most records, active means well fitted inhibition curve with a large enough effect; inconclusive means small, poorly fitted or top-dose-only effect; inactive means no such curve, though single readings can be large or run the other way.
Parameter call: string, one of 1 for active, -1 for inactive

compound=Nc1nc(OCc2ccccc2)c2[nH]cnc2n1 category_label=-1
compound=Cc1ccc(NC(=O)c2ccc(CN3CCN(C)CC3)cc2)cc1Nc1nccc(-c2cccnc2)n1 category_label=-1
compound=CC(C)c1nc(CN(C)C(=O)N[C@H](C(=O)N[C@@H](Cc2ccccc2)C[C@H](O)[C@H](Cc2ccccc2)NC(=O)OCc2cncs2)C(C)C)cs1 category_label=-1

Request: Assay outcome for Nc1ncn([C@H]2C[C@H](O)[C@@H](CO)O2)c(=O)n1 : what was it?
Response: -1

Request: In this assay, the call recorded for CCOC(=O)C(C)Oc1cccc2c(=O)n(CC(=O)Nc3ccc4c(c3)OCCO4)ccc12 (stereo not given) was what?
Response: -1

Request: Please share the test call associated with CN(C)c1ccc2nc3ccc(=[N+](C)C)cc-3sc2c1 .
Response: -1

Request: Which outcome was assigned to C[C@H](Cn1cnc2c(N)ncnc21)OCP(=O)(O)O in this test?
Response: -1

Request: Just curious, what result did CC(C)Oc1ccc2c(=O)c(-c3ccccc3)coc2c1 get here?
Response: 1

Request: Write down the call the test reported for this compound. Item: C=C(c1ccc(C(=O)O)cc1)c1cc2c(cc1C)C(C)(C)CCC2(C)C
Response: -1

Request: Please indicate how the test categorized NC(=NCc1ccccc1)NC(=O)c1nc(Cl)c(N)nc1N .
Response: -1
